Tested on: HCT-15 colon
Assay: NCI-60 one-dose screen, 48 h (100 = growth as untreated, 0 = no growth, -100 = all killed)
Conditions: 10 µM unless noted
Compounds without any hit were thinned out: in the full panel of roughly 83,000, 20% have a hit.
QUANTITY NAME: growth (%)

INSERT INTO assay_data (molecule, experimental_target, quantity_name, u, reported_value) VALUES
  ('COC(=O)Nc1ccc2ccc3c(NC(=O)OC)ccc4ccc1c2c43 (tested in a mixture with another compound)', 'HCT-15 colon', 'growth', '%', 35.6),
  ('CN(C)c1ncnc2c1ncn2C1CCCCO1 (stereo not given)', 'HCT-15 colon', 'growth', '%', 100),
  ('Cc1ccc(C(=O)Cc2ccccc2)c(O)c1', 'HCT-15 colon', 'growth', '%', 102),
  ('CC(=O)OC1Oc2cc(C)c(C)cc2-c2oc(=O)c(-c3ccccc3)cc21 (stereo not given)', 'HCT-15 colon', 'growth', '%', 6.95),
  ('O=C(O)c1ccc2cccnc2c1O', 'HCT-15 colon', 'growth', '%', 7.1),
  ('O=C1c2cc3c(cc2-c2c1c1ccc(Cl)cc1c(=O)n2CCCNCCO)OCO3', 'HCT-15 colon', 'growth', '%', -78.3),
  ('COc1ccc(CC(=O)Nc2nn3c(-c4cc(C(F)(F)F)cc(C(F)(F)F)c4)nnc3s2)cc1', 'HCT-15 colon', 'growth', '%', 62.4),
  ('Cc1cc(C)c2c(N)c3cccc(C)c3nc2n1', 'HCT-15 colon', 'growth', '%', 10.4),
  ('Cc1ccc(S(=O)(=O)NCCN2c3nc4ccccc4cc3Sc3cc4ccccc4nc32)cc1', 'HCT-15 colon', 'growth', '%', 103),
  ('c1ccc(COc2ccc(Nc3ncnc4c3cnn4-c3ccccc3)cc2)cc1', 'HCT-15 colon', 'growth', '%', 72.4);
